Field: inhibition. Provide a value for each of the compounds that follow.
system tested: Tubulin (Bos taurus) (UniProt Q6B856+Q862L2+Q862F3)
test protocol: Inhibition of radiolabeled colchicine binding to tubulin
Type: protein assay
Parameters: concentration or dose not given beside the values
test settings: concentration not given here
Give bare numbers, in %.

# annotated cases, reported inhibition shown
>>> print(df.to_string())
                                   compound  endpoint_value
0       Cc1ccc2c(O)cc(-c3cccc4ccccc34)nc2n1              40
1         Cc1ccnc2nc(-c3cccc(Cl)c3)cc(O)c12              32
2  COc1cc([C@@H]2c3cc4c(cc3[C@H](O)[C@H]3COC(=O)[C@H]23)OCO4)cc(OC)c1OC [PODOFILOX]              76

Hey, can you go through the list below and give me inhibition for every item?
1. Cc1ccnc2nc(-c3cccc4ccccc34)cc(O)c12
2. Cc1cnc2[nH]c(-c3cccc(F)c3)cc(=O)c2c1
3. Cc1cc(C)c2c(O)cc(-c3cccc(F)c3)nc2n1
4. Cc1ccc2c(=O)cc(-c3cccc(F)c3)[nH]c2n1
5. Cc1cc(C)c2c(O)cc(-c3cccc4ccccc34)nc2n1
6. Cc1cnc2nc(-c3cccc4ccccc34)cc(O)c2c1
7. Cc1cc(C)c2c(O)cc(-c3cccc(Cl)c3)nc2n1

Result:
37
43
29
41
15
46
22

Hey, can you go through the list below and give me inhibition for every item?
1. Cc1cnc2[nH]c(-c3cccc(Cl)c3)cc(=O)c2c1
2. Cc1ccc2c(O)cc(-c3cccc(Cl)c3)nc2n1

Result:
1: 33; 2: 38

* * *

Tested on: CAKI-1
test protocol: In vitro antitumor activity against CAKI-1 tumor cell lines
Format: functional
test settings: Homo sapiens
readout label: GI50 (nM)
One number for each entry, in nM.

# annotated cases, reported GI50 shown
                       molecular_string  endpoint_value
0      Cc1cccc(-c2cc(O)c3ccc(C)nc3n2)c1             427
1   Cc1cnc2nc(-c3ccc4ccccc4c3)cc(O)c2c1             617
2  Cc1ccc2c(=O)cc(-c3cccc(F)c3)[nH]c2n1            45.7
3     Cc1ccc2c(O)cc(-c3cccc(Cl)c3)nc2n1            41.7
4   Cc1ccnc2nc(-c3ccc4ccccc4c3)cc(O)c12            2400
5  Oc1cc(-c2ccc3ccccc3c2)nc2ncc(Cl)cc12            7590

Hey, can you go through the list below and give me GI50 for every item?
1. Cc1cc(C)c2c(O)cc(-c3cccc(F)c3)nc2n1
2. Cc1cccc(-c2cc(O)c3c(C)ccnc3n2)c1
3. Cc1cc(C)c2c(O)cc(-c3cccc4ccccc34)nc2n1

Result:
[35.5, 53.7, 9550]

* * *

System: MDA-N
test protocol: In vitro antitumor activity against MDA-N tumor cell lines
Assay type: functional
test settings: Homo sapiens
Field: log10(GI50). Provide a value for each of the compounds that follow.
All values: log10 GI50 [µM].

# annotated cases, reported log10(GI50) shown
>>> print(df.to_string())
                         molecular_string  system_tested  readout_label  endpoint_value
0     Cc1cccc(-c2cc(O)c3c(C)cc(C)nc3n2)c1          MDA-N    log10(GI50)            1.32
1    Cc1ccc2c(=O)cc(-c3cccc(F)c3)[nH]c2n1          MDA-N    log10(GI50)           -1.84
2  Cc1cc(C)c2c(O)cc(-c3ccc4ccccc4c3)nc2n1          MDA-N    log10(GI50)            0.51
3     Cc1ccnc2nc(-c3ccc4ccccc4c3)cc(O)c12          MDA-N    log10(GI50)           -0.69

Could you now consider this next compound?
Task: May I ask what log10(GI50) has been recorded for "Cc1cnc2[nH]c(-c3cccc(F)c3)cc(=O)c2c1" ?
Result: -1.93
